- Test system: DU145 prostate cancer
- assay.info: MTS cell viability assay, DU145 prostate cancer cell line
- Format: cell-based
- test.context: Table 4; DU145 prostate; 10 μM, 48 h
Hi, to clarify the labels: TRUE covers Viability % CTL DU145 prostate (10 μM ) from 50 % CTL upward, FALSE covers anything below 50 % CTL.

CC(=O)Nc1ccc(Nc2cnc3cc(NC(=O)Nc4ccc(F)c(Cl)c4)c(C)nc3n2)cc1 ... TRUE
Cc1nc2nc(Nc3ccc(C(=O)O)cc3)cnc2cc1NC(=O)Nc1ccc(F)c(Cl)c1 ... TRUE

Challenge: Answer whether Viability % CTL DU145 prostate (10 μM ) of COc1cc(Nc2cnc3cc(NC(=O)Nc4cccc(C(F)(F)F)c4)c(C)nc3n2)cc(OC)c1OC is greater than or equal to 50 % CTL.
Response given: TRUE

Challenge: Same lookup for Cc1nc2nc(Nc3ccc(C(=O)O)cc3)cnc2cc1NC(=O)Nc1cccc(C(F)(F)F)c1 , please.
Response given: TRUE

Challenge: Now consider CSc1ccc(NC(=O)Nc2cc3ncc(Nc4ccccc4)nc3nc2C)cc1 .
Response given: FALSE

Challenge: Another compound: CCOC(=O)c1ccc(Nc2cnc3cc(NC(=O)Nc4cccc(C(F)(F)F)c4)c(C)nc3n2)cc1
Response given: FALSE

Challenge: What do you have for CCOC(=O)c1ccc(Nc2cnc3cc(NC(=O)Nc4ccc(F)c(Cl)c4)c(C)nc3n2)cc1 ?
Response given: FALSE

###

Parameter: IC50. Scope: all listed entries.
- Test system: H69 small cell lung cancer
- assay.info: MTS cell viability assay, H69 lung cancer cell line
- Format: cell-based
- test.context: 48 h
The reply should be a number in nM, with the unit left off.

Cc1nc2nc(Nc3ccccc3)cnc2cc1NC(=O)Nc1ccc(F)c(Cl)c1 ... 510

Let us examine a further case.
Challenge: Could you tell me which IC50 is on file for Cc1nc2nc(Nc3ccccc3)cnc2cc1NC(=O)Nc1cccc(C(F)(F)F)c1 ?
Response given: 980

###

- Test system: DU145 prostate cancer
- assay.info: MTS cell viability assay, DU145 prostate cancer cell line
- Format: cell-based
- test.context: Table 2; DU145 prostate; 10 μM, 48 h
The reader will find reported Viability (% CTL) at 10 μM DU145 prostate values listed item by item below.
Respond with the bare value in % CTL.

Here are 4 compounds together with their reported answers.
Cc1nc2nc(Nc3ccccc3)cnc2cc1NC(=O)CN(C)C [Compound 24E] ... 102
Cc1nc2nc(Nc3ccccc3)cnc2cc1NC(=O)c1ccc([N+](=O)[O-])cc1 ... 97
Cc1nc2nc(Nc3ccccc3)cnc2cc1NC(=O)c1ccccc1 ... 90
Cc1nc2nc(Nc3ccccc3)cnc2cc1NC(=O)Nc1ccccc1 ... 4

Challenge: I would be grateful if you could share the reported Viability (% CTL) at 10 μM DU145 prostate for Cc1nc2nc(Nc3ccccc3)cnc2cc1NC(=O)c1ccc(N)cc1 .
Response given: 77

Challenge: Could you do the same for Cc1nc2nc(Nc3ccccc3)cnc2cc1NC(=O)CN1CCN(C)CC1 [Compound 25E] , please?
Response given: 83

Challenge: Same question for CCN(CC)CCNCC(=O)Nc1cc2ncc(Nc3ccccc3)nc2nc1C [Compound 27E] please.
Response given: 82

###

- Tested on: A2058 melanoma
- assay.info: MTS cell viability assay, A2058 melanoma cell line
- Format: cell-based
- test.context: Table 2, 10 μM, 48 h
- Experimental: MTS assays were performed for cell viability. To determine if novel pyridopyrazine derivatives have antitumor activities, compounds were screened at 10 μM final concentration with A2058 melanoma and DU145 prostate cancer cell lines. […] Viable cell numbers were determined by tetrazolium conversion to its formazan dye. Absorbance was measured at 490 nm using an automated ELISA plate reader. […] IC50 values were determined using CalcuSyn software (Biosoft).
Outcome: 1 for Viability (% CTL) at 10 μM A2058 melanoma of at least 80 % CTL; 0 for anything lower.

Cc1nc2nc(Nc3ccccc3)cnc2cc1N [Compound 7] ... 1
Cc1nc2nc(Nc3ccccc3)cnc2cc1NC(=O)c1ccc(N)cc1 [Compound 13] ... 1
Cc1nc2nc(Nc3ccccc3)cnc2cc1NC(=O)CNc1ccccc1 [Compound 26E] ... 1
Cc1nc2nc(Nc3ccccc3)cnc2cc1NC(=O)CN1CCN(C)CC1 [Compound 25E] ... 1
Cc1nc2nc(Nc3ccccc3)cnc2cc1NC(=O)Nc1ccccc1 [Compound 15] ... 0

Challenge: Can Cc1ccc(C(=O)Nc2cc3ncc(Nc4ccccc4)nc3nc2C)cc1 [Compound 9] be said to have Viability (% CTL) at 10 μM A2058 melanoma at or above 80 % CTL?
Response given: 0

Challenge: And then Cc1nc2nc(Nc3ccccc3)cnc2cc1NC(=O)CN(C)C [Compound 24E] , what is it?
Response given: 1

Challenge: Cc1nc2nc(Nc3ccccc3)cnc2cc1NC(=O)c1ccc([N+](=O)[O-])cc1 [Compound 10] ?
Response given: 1

Challenge: Try the compound Cc1nc2nc(Nc3ccccc3)cnc2cc1NC(=O)c1ccc(NC(=O)Nc2ccccc2)cc1 [Compound 14]
Response given: 0

Challenge: Moving on to the next compound: COc1cc(C(=O)Nc2cc3ncc(Nc4ccccc4)nc3nc2C)cc(OC)c1OC [Compound 11]
Response given: 1

Challenge: What do you get for CCN(CC)CCNCC(=O)Nc1cc2ncc(Nc3ccccc3)nc2nc1C [Compound 27E] ?
Response given: 1
